Tested on: DU-145
test name: Cytotoxicity against human DU145 cells after 48 hrs by SRB assay
Assay type: functional, cell-based
details: Homo sapiens, DU-145, 48 h; read-out: GI50
Would you mind telling me the reported GI50 of each entry?
Give bare numbers, in nM.

The examples below pair each entry with its known result.
C/C=C1\NC(=O)[C@H](Cc2ccccc2)NC(=O)[C@@H](C(C)C)NC(=O)[C@@H]([C@H](C)CC)NC(=O)[C@H](NC(=O)[C@H](NC(=O)[C@H](CCCC[N+](C)(C)C)NC(=O)[C@H]2CCCN2C(=O)[C@H](NC(=O)[C@@H](NC(=O)[C@@H](NC(=O)[C@H](NC(=O)CC[C@@H](C)CC)C(C)C)[C@@H](C)O)C(C)C)C(C)C)[C@H](C)CC)[C@H](C)OC(=O)[C@H](C(C)C)NC1=O | 1020
C/C=C1\NC(=O)[C@H](Cc2ccccc2)NC(=O)[C@@H](C(C)C)NC(=O)[C@@H]([C@H](C)CC)NC(=O)[C@H](NC(=O)[C@H](NC(=O)[C@H](CCCNC(=O)CCOCCOCCN)NC(=O)[C@H]2CCCN2C(=O)[C@H](NC(=O)[C@@H](NC(=O)[C@@H](NC(=O)[C@H](NC(=O)CCCC(C)C)C(C)C)[C@@H](C)O)C(C)C)C(C)C)[C@H](C)CC)[C@H](C)OC(=O)[C@H](C(C)C)NC1=O | 738

// next item, GI50 requested
Quick one: give measured GI50 for C/C=C1\NC(=O)[C@@H]2Cc3ccccc3CN2C(=O)[C@@H](C(C)C)NC(=O)[C@@H]([C@H](C)CC)NC(=O)[C@H](NC(=O)[C@H](NC(=O)[C@H](CCCN)NC(=O)[C@H]2CCCN2C(=O)[C@H](NC(=O)[C@@H](NC(=O)[C@@H](NC(=O)[C@H](NC(=O)CC[C@@H](C)CC)C(C)C)[C@@H](C)O)C(C)C)C(C)C)[C@H](C)CC)[C@H](C)OC(=O)[C@H](C(C)C)NC1=O
4160
